All figures here come from paper PMC11605156.

target: CYP1A2 (Homo sapiens); experiment: CYP1A2 inhibition, probe/drug metabolism in human liver microsomes (LC-MS/MS); conditions: IC50 values, metabolism of four drugs mediated by CYP 1A2, range over phenacetin, riluzole, clozapine, melatonin
Sequence (P05177 whole entry): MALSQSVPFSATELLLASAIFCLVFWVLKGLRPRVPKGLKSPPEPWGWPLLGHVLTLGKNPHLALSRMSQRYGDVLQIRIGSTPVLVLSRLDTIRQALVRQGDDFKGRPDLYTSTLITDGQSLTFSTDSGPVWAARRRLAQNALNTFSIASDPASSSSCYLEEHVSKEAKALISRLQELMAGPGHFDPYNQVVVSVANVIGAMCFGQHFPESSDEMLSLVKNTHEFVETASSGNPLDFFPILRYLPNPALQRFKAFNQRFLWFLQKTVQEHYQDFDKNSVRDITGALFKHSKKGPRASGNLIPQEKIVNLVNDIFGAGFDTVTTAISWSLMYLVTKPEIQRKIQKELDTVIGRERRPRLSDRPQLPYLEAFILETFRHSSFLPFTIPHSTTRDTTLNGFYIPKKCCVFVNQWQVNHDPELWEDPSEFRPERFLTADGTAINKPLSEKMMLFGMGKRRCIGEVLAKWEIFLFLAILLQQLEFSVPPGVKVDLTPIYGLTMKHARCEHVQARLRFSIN
pIC50: −log10 of the molar value.
reported endpoint: pIC50

Asked: Answer with reported pIC50 of CC(=CC(=O)CC(C)C(=O)O)C1CC(=O)C2(C)C3=C(C(=O)C(O)C12C)C1(C)CCC(=O)C(C)(CO)C1CC3O (stereo not shown)
Given back: 4.72 to 5.02

---

Field: activity at 30 min. Provide a value for each of the compounds that follow.
target: CYP2C19 (Homo sapiens, UniProt P33261); test: CYP2C19 inhibition, S-mephenytoin probe in human liver microsomes; conditions: human, human liver microsomes, pH 7.4, probe S-mephenytoin 50 μM, Residual activity (%) CYP2C19, HLM 0.5 mg/mL, S-mephenytoin 50 μM, 30 min
Sequence (P33261 whole entry): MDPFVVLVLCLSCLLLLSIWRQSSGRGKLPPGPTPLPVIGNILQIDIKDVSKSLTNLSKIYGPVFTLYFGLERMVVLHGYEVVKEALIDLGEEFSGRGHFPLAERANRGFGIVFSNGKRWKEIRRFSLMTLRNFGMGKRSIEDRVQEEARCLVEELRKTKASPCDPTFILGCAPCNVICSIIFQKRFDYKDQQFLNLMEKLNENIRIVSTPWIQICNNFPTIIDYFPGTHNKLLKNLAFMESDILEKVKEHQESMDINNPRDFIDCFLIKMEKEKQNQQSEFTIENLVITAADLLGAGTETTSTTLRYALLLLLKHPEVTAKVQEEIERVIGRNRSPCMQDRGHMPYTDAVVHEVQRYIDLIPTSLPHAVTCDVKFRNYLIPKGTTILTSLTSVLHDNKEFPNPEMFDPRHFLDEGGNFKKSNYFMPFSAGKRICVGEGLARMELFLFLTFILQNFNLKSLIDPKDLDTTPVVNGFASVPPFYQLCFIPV
// return the numeric value with its unit appended

Asked: Answer with reported activity at 30 min of CC(=CC(=O)CC(C)C(=O)O)C1CC(=O)C2(C)C3=C(C(=O)CC12C)C1(C)CCC(=O)C(C)(CO)C1CC3O (stereo not shown)
Given back: 65%

Asked: Answer with reported activity at 30 min of CC(CC(=O)CC(C)C1CC(=O)C2(C)C3=C(C(=O)CC12C)C1(C)CCC(O)C(C)(CO)C1CC3O)C(=O)O (stereo not shown)
Given back: 62.8%

Asked: Answer with reported activity at 30 min of CC(CC(=O)CC(C)C1CC(=O)C2(C)C3=C(C(=O)CC12C)C1(C)CCC(O)C(C)(C)C1CC3=O)C(=O)O (stereo not shown)
Given back: 88.3%

Asked: Answer with reported activity at 30 min of CC1(C)CCC2(C(=O)O)CCC3(C)C(=CC(=O)C4C5(C)CCC(O)C(C)(C)C5CCC43C)C2C1 (stereo not shown)
Given back: 97.6%

---

target: CYP3A4 (Homo sapiens, UniProt P08684); assay: CYP3A4 inhibition, probe/drug metabolism in human liver microsomes; settings: IC50 against metabolism of imatinib mediated by CYP3A4, substrate imatinib 5 μM, 30 min
Sequence (P08684 whole entry): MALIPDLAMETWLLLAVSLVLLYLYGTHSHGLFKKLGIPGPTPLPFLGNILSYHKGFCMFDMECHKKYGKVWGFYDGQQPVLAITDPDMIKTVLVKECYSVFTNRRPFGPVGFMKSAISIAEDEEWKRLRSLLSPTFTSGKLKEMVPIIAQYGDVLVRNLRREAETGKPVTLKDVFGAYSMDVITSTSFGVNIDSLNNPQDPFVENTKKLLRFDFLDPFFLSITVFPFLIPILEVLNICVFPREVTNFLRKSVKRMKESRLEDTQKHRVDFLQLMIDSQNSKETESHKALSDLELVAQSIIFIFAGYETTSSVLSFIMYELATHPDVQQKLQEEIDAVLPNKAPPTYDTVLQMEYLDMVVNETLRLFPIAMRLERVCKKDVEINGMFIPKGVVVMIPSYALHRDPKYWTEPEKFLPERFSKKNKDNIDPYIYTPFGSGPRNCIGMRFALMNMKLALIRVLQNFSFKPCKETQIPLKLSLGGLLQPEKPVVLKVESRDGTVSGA
reported endpoint: IC50 (µM)
Numeric answer only, unit µM assumed.

Asked: Write down measured IC50 (CYP3A4 (Homo sapiens, UniProt P08684)) for this compound. CC(CCC(O)C(C)(O)CO)C1CCC2(C)C3=C(C(=O)CC12C)C1(C)CCC(=O)C(C)(C)C1CC3 (stereo not shown) [Compound 25, ganodrol C]
Given back: 7.57

---

Field: Cmax. Provide a value for each of the compounds that follow.
experiment: in vivo; details: male, SD, rat, in vivo, po
Numeric answer only, unit ng/mL assumed.

Asked: Answer with reported Cmax of O=C(O)Cc1ccccc1Nc1c(Cl)cccc1Cl
Given back: 912

Asked: Answer with reported Cmax of CCOc1ccc(NC(C)=O)cc1
Given back: 364

Asked: Answer with reported Cmax of Cc1ncc2n1-c1ccc(Cl)cc1C(c1ccccc1F)=NC2
Given back: 1630

Asked: Answer with reported Cmax of CC(NC(C)(C)C)C(=O)c1cccc(Cl)c1 (stereo not shown)
Given back: 1890

---

Field: IC50 at 30 min. Provide a value for each of the molecules that follow.
target: CYP1A2 (Homo sapiens); experiment: CYP1A2 inhibition, probe/drug metabolism in human liver microsomes (LC-MS/MS); conditions: human, human liver microsomes, pH 7.4, probe phenacetin 40 μM, IC50 against CYP 1A2, substrate phenacetin 40 μM, HLM
Numeric answer only, unit µM assumed.

Asked: Answer with reported IC50 at 30 min of CC(=O)OC1C(=O)C2=C(C(=O)CC3C(C)(C)C(=O)CCC23C)C2(C)C(=O)CC(C(C)CC(O)C=C(C)C(=O)O)C12C (centres unmarked)
Given back: 29

Asked: Answer with reported IC50 at 30 min of CC(CC(=O)CC(C)C1CC(=O)C2(C)C3=C(C(=O)CC12C)C1(C)CCC(O)C(C)(C)C1CC3=O)C(=O)O (centres unmarked)
Given back: 24.7
